Measured On: T1, human CD47, full length, on transfected cells (human, UniProt Q08722 19-323)
T1 construct: whole, on cells; also called CHOK1-hCD47
Procedure Text: FACS CHOK1-hCD47; Ab 0.0128 nM
Readout Type: mean fluorescence intensity
Hey, just send me the number, nothing else.

Answer with the recorded mean fluorescence intensity for the binder listed here: 54G8G6 (antibody, V domains shown, Murine hybridoma antibody purified on protein G) VH: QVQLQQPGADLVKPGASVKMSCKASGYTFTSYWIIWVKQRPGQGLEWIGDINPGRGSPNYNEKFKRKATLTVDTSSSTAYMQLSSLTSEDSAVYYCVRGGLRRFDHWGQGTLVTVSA VL: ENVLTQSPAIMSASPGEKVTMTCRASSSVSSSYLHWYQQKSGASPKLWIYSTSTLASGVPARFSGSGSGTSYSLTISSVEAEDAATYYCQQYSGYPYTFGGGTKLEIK
216
